Provenance of the data: patent US11542261B2

Tested on: MLL-AF9/FLT3-ITD cells
Format: cell-based
conditions: Homo sapiens, MLL-AF9, Table 10
pIC50: −log10 of the molar value.
Please assign a class to every record based on measured pIC50, with ranges band A = under 6, band B = from 6 up to 7, band C = 7 and over

compound	system.name	assigned.label
CCN1CCN(c2ccc3ncc(-c4cccc(NC5CNC5)n4)n3c2)CC1	MLL-AF9/FLT3-ITD cells	band A
Clc1cn2c(-c3cccc(NC4CCNC4)n3)cnc2cc1OCCN1CCOCC1 (stereo not drawn)	MLL-AF9/FLT3-ITD cells	band C
COc1cc2ncc(-c3cccc(NC4CCNC4)n3)n2cc1-c1nnn[nH]1 (stereo not drawn)	MLL-AF9/FLT3-ITD cells	band A
c1cc(N[C@H]2CCNC2)nc(-c2cnc3ccc(-c4cn[nH]c4)cn23)c1	MLL-AF9/FLT3-ITD cells	band C
COc1cc(-c2cn[nH]c2)cn2c(-c3cccc(NC4CCNC4)n3)cnc12 (stereo not drawn)	MLL-AF9/FLT3-ITD cells	band A
COc1cc2ncc(-c3cccc(NC4CCNC4)n3)n2cc1-c1cn[nH]c1 (stereo not drawn)	MLL-AF9/FLT3-ITD cells	band C
c1cc(NC2CNC2)nc(-c2cnc3ccc(-c4cn[nH]c4)cn23)c1	MLL-AF9/FLT3-ITD cells	band B
COc1cc2ncc(-c3cccc(NC4CCNC4)n3)n2cc1-c1cnn(CCN2CCOCC2)c1 (stereo not drawn)	MLL-AF9/FLT3-ITD cells	band C
Clc1ccc2ncc(-c3cc(Br)cc(NC4CNC4)n3)n2c1	MLL-AF9/FLT3-ITD cells	band A
CC(=O)N1CC(Nc2cccc(-c3cnc4ccc(Cl)cn34)n2)C1	MLL-AF9/FLT3-ITD cells	band B
COc1cc2ncc(-c3cccc(NC4CCNC4)n3)n2cc1C#N (stereo not drawn)	MLL-AF9/FLT3-ITD cells	band C
N#CCC(=O)N1CC(Nc2cccc(-c3cnc4ccc(Cl)cn34)n2)C1	MLL-AF9/FLT3-ITD cells	band B
CN(c1cccc(-c2cnc3ccc(Cl)cn23)n1)C1CCNCC1	MLL-AF9/FLT3-ITD cells	band C
